Numbers sourced from ChEMBL document CHEMBL1201862.

Tested on: HCC 2998
experiment notes: NCI tumour cell line growth inhibition, 48 h
The source made the active and inactive calls. Cut-off read from the data, not from the text of the source: active = GI50 up to about 1.1 µM and inactive = higher.
Reported GI50 by item:

CC#CC(O)(C(=O)OCCCN(C)C)C1CCCCC1 (stereo unspecified) ... > 100 µM (inactive)
O=c1oc2c(Cl)cc(Cl)cc2cc1-c1cn2c(n1)sc1ccccc12 ... 24.5 µM (inactive)
[O-][S+]1c2ccccc2SCSc2ccccc21 ... > 100 µM (inactive)
COC1=C(OC)C(=O)C(Cc2c(C)nc3sccn23)=C(C)C1=O ... 20.9 µM (inactive)
O=C(CSc1nc2ccccc2c(=O)n1-c1ccccc1)N/N=C1\C(=O)Nc2ccc(F)cc21 ... 2.21 µM (inactive)

Turning now to a further record.
[in] For the compound "CCOC(=O)CCc1c(C)c2ccc(O)cc2oc1=O" , give its reported GI50.
[out] > 100 µM (inactive)

====

// GI50 lookup, one value per entry
Tested on: 786-0
experiment notes: NCI tumour cell line growth inhibition, 48 h
Activity calls are given as the source filed them. Cut-off read from the data, not from the text of the source: active = GI50 up to about 1.1 µM and inactive = higher.

Cc1ccc2nc(NC(=O)C(=O)C3C(=O)NC(=S)NC3=O)sc2c1 ... > 100 µM (inactive)
CC1=NC(C)(COC(=O)C2(C)NC(C)(CO)CO2)COC1=O (configuration not stated) ... > 100 µM (inactive)
COC(=O)[C@@H]1CN(C(=O)Cc2ccccc2)C(=O)N1 ... > 100 µM (inactive)

[in] Query GI50 for "N=C(N)SCCc1ccccn1"
[out] > 100 µM (inactive)

[in] Name the recorded GI50 of the molecule listed here: COC(=O)/C=C1\C(CO[Si](C)(C)C(C)(C)C)OC(n2ccc(=O)[nH]c2=O)C1O (configuration not stated)
[out] 6.04 µM (inactive)

[in] Please give measured GI50 of the following entry: "Cc1ccnc2nc(-c3ccc(Cl)cc3)cc(O)c12"
[out] 4.46 µM (inactive)

[in] Name the recorded GI50 of the molecule listed here: CC1=CCCC(OC(N)=O)C1 (configuration not stated)
[out] > 100 µM (inactive)

====

# GI50 annotations
System: 786-0
experiment notes: NCI tumour cell line growth inhibition, 48 h
Active and inactive are the calls of the source. No stated cut-off is given here; in the data, active = GI50 up to about 1.1 µM and inactive = higher.

Known results for compounds:
CC(C)(C)OC(=O)NC1CCCCC1NC(=O)C(=O)NC1CCCCC1NC(=O)OC(C)(C)C (stereo unspecified) ... 34.7 µM (inactive)
CC(CCC=O)CCOCc1ccccc1 (stereo unspecified) ... > 100 µM (inactive)
O=C(O)CNS(=O)(=O)c1ccc(NC(=O)c2ccccc2[N+](=O)[O-])cc1 ... > 100 µM (inactive)
CCOC(=O)C1C2CCC(C2)C1(CCl)C(=O)OCC (stereo unspecified) ... > 100 µM (inactive)
O=S(=O)(c1cccc(C(F)(F)F)c1)N1c2ccccc2-n2cccc2C1c1cccnc1 (stereo unspecified) ... > 40.6 µM (inactive)

Proceeding to the next compound to report its GI50.
[in] Specify GI50 for CC12O[C@]3([C@H](C(=O)N4CCOC43C)[C@H]1Cl)[C@H]1O[C@H]12 (stereo partly specified) and stop.
[out] > 100 µM (inactive)

====

Test system: K562
experiment notes: NCI tumour cell line growth inhibition, 48 h
Calls of active or inactive are those of the source. No stated cut-off is given here; in the data, active = GI50 up to about 1.1 µM and inactive = higher.
Mark one answer only. Choices: 1 for active, 0 for inactive

Here's what some known entries look like.
CC(=O)c1cccc(NC(=O)C(=O)C(C(=O)NN)c2ccccc2)c1 (stereo not drawn) ... 0
Nc1ccccc1SC(/C=C/NNC1=NN=C(c2ccccc2)C(c2ccccc2)N1)c1ccccc1 (stereo not drawn) ... 0

[in] // return assay outcome for CC12CC(C#N)(C#N)C(C#N)(CO1)C(=N)O2 (stereo not drawn)
[out] 0

[in] Outcome? "COc1ccc(/C=C/c2ccnc3ccccc23)cc1"
[out] 0

[in] Which outcome did this test record for the molecule "O=[N+]([O-])/C(C(Cl)=C(Cl)Cl)=C(/Sc1ccccc1)N1CCOCC1" ?
[out] 0

[in] For "C#CCN(N=O)C(=O)ON1C(=O)CCC1=O" , which call appears in the assay record?
[out] 0

[in] Short answer needed: outcome of this test for "Oc1ccc(O)c(-n2cccn2)c1-n1cccn1" ?
[out] 0

[in] // return assay outcome for "c1ccc2c(c1)-c1ccccc1C2NC1=NCCO1"
[out] 0

====

System: NCI/ADR-RES
experiment notes: NCI tumour cell line growth inhibition, 48 h
Active and inactive are the calls of the source. Cut-off read from the data, not from the text of the source: active = GI50 up to about 1.1 µM and inactive = higher.
Thanks in advance; please answer with one of these: active, inactive

[in] What call does the record list for CC(=O)O[C@H]1CC[C@]2(C=O)[C@H]3CC[C@]4(C)[C@@H](C5=CC(=O)OC5)CC[C@]4(O)[C@@H]3CC[C@]2(O)C1 [STROPHANTHIDIN ACETATE] ?
[out] active

====

Test system: DU-145
experiment notes: NCI tumour cell line growth inhibition, 48 h
The source made the active and inactive calls. No stated cut-off is given here; in the data, active = GI50 up to about 1.1 µM and inactive = higher.
quantity: GI50

Consider the worked cases shown below.
CO/C(N)=C(C#N)/N=C/c1ccc2ccccc2c1 ... > 100 µM (inactive)
COC(=O)CN1Cc2cc(C)cc(c2O)CN(CC(=O)OC)Cc2cc(C)cc(c2O)CN(CC(=O)OC)Cc2cc(C)cc(c2O)CN(CC(=O)OC)Cc2cc(C)cc(c2O)C1 ... 8.17 µM (inactive)
Brc1c(C#CCC2CCCCC2)ccc(C#CCC2CCCCC2)c1Br ... > 100 µM (inactive)
CC12O[C@]3([C@H](C(=O)N4CCOC43C)[C@H]1Cl)[C@H]1O[C@H]12 (stereo not given in full) ... > 100 µM (inactive)
COC(=O)C1C=CN(N(C)C)C2=C1C(=O)c1c(O)cccc1C2=O (stereo not given) ... 1.58 µM (inactive)

[in] GET GI50 where system = DU-145 and item = CC(C)(C)OC(=O)NC1CCCCC1NC(=O)C(=O)NC1CCCCC1NC(=O)OC(C)(C)C (stereo not given)
[out] > 100 µM (inactive)

[in] // fetch GI50 for "CN(CC(=O)O)c1ncc2c(n1)-c1ccccc1OC2" ; system: DU-145
[out] > 100 µM (inactive)

[in] State recorded GI50 with DU-145, entry "CN(C)c1nc(N)c(C#N)c(C#N)c1C#N" , no comment.
[out] > 10 µM (inactive)

[in] Provide GI50, system DU-145, entry "CCOC(=O)c1c(NS(=O)(=O)c2ccccc2)sc2c1CCCC2"
[out] 89.5 µM (inactive)

[in] Identify measured GI50 obtained with DU-145 for Fc1ccc(C(OCCN2CCC3CCC(C2)N3C/C=C/c2ccco2)c2ccc(F)cc2)cc1 (stereo not given) .
[out] 15.7 µM (inactive)

====

System: SK-MEL-2
experiment notes: NCI tumour cell line growth inhibition, 48 h
Activity calls are given as the source filed them. Rule as the data show it: active = GI50 up to about 1.1 µM and inactive = higher.
quantity: GI50

Sample answers from the record:
COc1ccc(-c2c3c(nc4nc(SC)nc(SC)c24)CCCC3)cc1OC ... 25.8 µM (inactive)
CC(=O)Oc1c(C)cc2c(c1C)C(C)(C)CN2C(=O)C(C)(C)C ... > 100 µM (inactive)
FC(F)(F)c1ccccc1/C=N/C12CC3CC(CC(C3)C1)C2 ... > 100 µM (inactive)

[in] Look up GI50 of "O=C(/C=C/c1ccccc1)c1ccccn1" and report it.
[out] 19.2 µM (inactive)

[in] Given "Cc1ccc2nc(NC(=O)C(=O)C3C(=O)NC(=S)NC3=O)sc2c1" , respond with its GI50.
[out] > 100 µM (inactive)

[in] Name the recorded GI50 of the item "CCOC(=O)c1cnc2oc3ccc(O)cc3c2c1-c1ccccc1" in your answer.
[out] 15.1 µM (inactive)

====

Tested on: MDA-N
experiment notes: NCI tumour cell line growth inhibition, 48 h
The source made the active and inactive calls. Rule as the data show it: active = GI50 up to about 1.1 µM and inactive = higher.
quantity: GI50

Before answering, review these 8 worked examples.
COC(=O)c1ccc(Oc2nc3ccc(C(F)(F)F)cc3nc2-c2ccccc2)cc1 ... > 100 µM (inactive)
Oc1ccc(O)c(Cc2ccccc2)c1 ... 18 µM (inactive)
CCOC(=O)CCc1c(C)c2ccc(O)cc2oc1=O ... > 100 µM (inactive)
NC12CCC(CC1=O)C2 (stereo not drawn) ... > 100 µM (inactive)
CCc1nnc2sc(-c3ccc(-c4ccccc4[N+](=O)[O-])o3)nn12 ... 19.9 µM (inactive)
CC(C)(C)OC(=O)NC1CCCCC1NC(=O)C(=O)NC1CCCCC1NC(=O)OC(C)(C)C (stereo not drawn) ... > 100 µM (inactive)
CC(=O)c1c(O)cc(O)c(-c2c(C)cc(O)c3c2C(=O)c2cccc(O)c2C3=O)c1O ... 16 µM (inactive)
N#Cc1nc(CCC(C(=O)O)N2C(=O)c3ccccc3C2=O)oc1N (stereo not drawn) ... > 100 µM (inactive)

[in] For the compound O=S(=O)(c1cccc(C(F)(F)F)c1)N1c2ccccc2-n2cccc2C1c1cccnc1 (stereo not drawn) , report GI50.
[out] 26.9 µM (inactive)

[in] Give the value of GI50 reported for the following: "CC(=O)n1[nH]c(=O)n(-c2ccccc2)c1=O"
[out] > 100 µM (inactive)

[in] Give the reported value of GI50 for this record: CN(C)CC1CCC/C(=C\c2ccc(OC(=O)/C=C/c3ccc(Cl)c(Cl)c3)cc2)C1=O (stereo not drawn)
[out] 3.37 µM (inactive)

[in] For "CCCN(CCC)CCc1ccc(OC2=CCN(C)CC2)cc1" , write its GI50.
[out] 36.6 µM (inactive)
